system_name: human recombinant PLK4 (Homo sapiens (Human))
experiment_notes: PLK4 Biochemical Assay (ADP-Glo)
test_conditions: 0.5 nM PLK4, 8.0 µM ATP, 4.7 µM MBP, 6 hours at RT
Hi there, I'd appreciate the recorded pIC50 for every entry that follows.
Numbers only, as −log10 of the molar value.

In the examples that follow, each entry is paired with its recorded pIC50.
compound="COc1cnc(C)nc1Nc1n[nH]c2cc([C@@H]3C[C@@]34C(=O)N(C)c3ccccc34)ccc12 [Example 122]" readout_number=7.14
compound="COc1ccc2c(c1)[C@]1(C[C@H]1c1ccc3c(Nc4nc(C5CC5)nc(N5CCOCC5)c4OC)n[nH]c3c1)C(=O)N2 [Example 51]" readout_number=8.91
compound="COc1ccc2c(c1)[C@]1(C[C@H]1c1ccc3c(Nc4cc(N5CC(O)C5)ncn4)n[nH]c3c1)C(=O)N2 [Example 36]" readout_number=8.21
compound="COc1ccc2c(c1)[C@]1(C[C@H]1c1ccc3c(Nc4ccc(P(C)(C)=O)nc4OC)n[nH]c3c1)C(=O)N2 [Example 205]" readout_number=8.78
compound="COc1ccc2c(c1)[C@]1(C[C@H]1c1ccc3c(Nc4cc(C(=O)N(C)C)cnc4OC)n[nH]c3c1)C(=O)N2 [Example 181]" readout_number=8.12

Please look at the items below and tell me pIC50 for each one, in order.
1. COc1ccc2c(c1)[C@]1(C[C@H]1c1ccc3c(Nc4nc(C)cnc4C)n[nH]c3c1)C(=O)N2.O=C(O)C(F)(F)F [Example 82]
2. COc1ccc2c(c1)[C@]1(C[C@H]1c1ccc3c(Nc4nc(C#N)ncc4OC)n[nH]c3c1)C(=O)N2 [Example 172]
3. COc1ccc2c(c1)[C@]1(C[C@H]1c1ccc3c(Nc4cnc(P(C)(C)=O)cc4OC)n[nH]c3c1)C(=O)N2 [Example 249]
4. COc1cnc(C)nc1Nc1n[nH]c2cc([C@@H]3C[C@@]34C(=O)Nc3ccc(F)cc34)ccc12 [Example 133]
5. COc1ccc2c(c1)[C@]1(C[C@H]1c1ccc3c(Nc4ccc(C(=O)NC(CF)CF)nc4OC)n[nH]c3c1)C(=O)N2 [Example 250]
6. COc1ccc2c(c1)[C@]1(C[C@H]1c1ccc3c(Nc4nc(C)ncc4OCC(F)F)n[nH]c3c1)C(=O)N2 [Example 147]
7. COc1ccc2c(c1)[C@]1(C[C@H]1c1ccc3c(Nc4nc(C)nc(N5CC(O)C5)c4OC)n[nH]c3c1)C(=O)N2 [Example 73]

Result:
1: 8.21; 2: 8.39; 3: 8.18; 4: 8.08; 5: 8.21; 6: 8.37; 7: 8.15

Record pIC50 for all entries; do not skip any.
1. COc1ccc2c(c1)[C@]1(C[C@H]1c1ccc3c(Nc4ncc(S(=O)(=O)N5CCOCC5)cc4OC)n[nH]c3c1)C(=O)N2 [Example 255]
2. COc1ccc2c(c1)[C@]1(C[C@H]1c1ccc3c(Nc4ccc(C)nc4OC)n[nH]c3c1)C(=O)N2 [Example 150]

Result:
1. 8.93
2. 8.09

====

system_name: human recombinant PLK4 (Homo sapiens (Human), UniProt O00444)
Sequence (O00444 whole entry): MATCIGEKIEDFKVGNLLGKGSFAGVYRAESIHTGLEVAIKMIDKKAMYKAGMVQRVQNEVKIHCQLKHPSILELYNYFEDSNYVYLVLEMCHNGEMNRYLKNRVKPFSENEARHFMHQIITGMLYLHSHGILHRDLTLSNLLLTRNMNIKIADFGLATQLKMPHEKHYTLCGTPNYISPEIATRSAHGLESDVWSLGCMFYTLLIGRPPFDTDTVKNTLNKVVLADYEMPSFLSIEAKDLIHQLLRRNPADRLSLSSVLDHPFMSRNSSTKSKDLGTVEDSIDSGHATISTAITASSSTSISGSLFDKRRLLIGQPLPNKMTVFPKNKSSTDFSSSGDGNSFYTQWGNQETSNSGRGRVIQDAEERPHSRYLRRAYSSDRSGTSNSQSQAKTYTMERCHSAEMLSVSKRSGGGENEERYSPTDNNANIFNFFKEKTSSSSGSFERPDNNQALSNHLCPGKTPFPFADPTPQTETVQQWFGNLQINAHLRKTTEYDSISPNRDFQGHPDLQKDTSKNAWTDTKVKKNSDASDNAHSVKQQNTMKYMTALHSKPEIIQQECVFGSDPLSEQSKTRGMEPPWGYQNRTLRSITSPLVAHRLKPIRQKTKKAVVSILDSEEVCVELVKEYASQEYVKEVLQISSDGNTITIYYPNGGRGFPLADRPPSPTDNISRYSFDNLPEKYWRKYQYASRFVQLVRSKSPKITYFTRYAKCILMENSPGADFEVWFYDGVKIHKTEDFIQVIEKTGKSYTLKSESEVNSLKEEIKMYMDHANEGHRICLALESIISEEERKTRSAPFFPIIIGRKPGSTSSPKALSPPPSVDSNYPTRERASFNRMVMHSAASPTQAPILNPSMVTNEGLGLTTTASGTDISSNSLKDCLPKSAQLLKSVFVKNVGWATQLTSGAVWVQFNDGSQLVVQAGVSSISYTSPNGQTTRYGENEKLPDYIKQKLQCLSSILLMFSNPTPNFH
experiment_notes: PLK4 Biochemical Assay (ADP-Glo)
test_conditions: 0.5 nM PLK4, 8.0 µM ATP, 4.7 µM MBP, 6 hours at RT
measured_property: IC50 (nM)
Numbers only, in nM.

Please state, for each entry, its recorded IC50.
1. COc1ccc2c(c1)[C@]1(C[C@H]1c1ccc3c(Nc4ccc(C(=O)N5CCOCC5)cc4OC)n[nH]c3c1)C(=O)N2 [Example 199]
2. COc1ccc2c(c1)[C@]1(C[C@H]1c1ccc3c(Nc4ncc(S(=O)(=O)C(C)C)cc4OC)n[nH]c3c1)C(=O)N2 [Example 248]
3. COc1ccc2c(c1)[C@]1(C[C@H]1c1ccc3c(Nc4cc(C(C)O)cnc4OC)n[nH]c3c1)C(=O)N2 (mixture of isomers) [Example 271]

Result:
[0.716, 1.24, 6.04]

Cited source: patent US20230365537A1
